Reference for the values: paper PMC2756588

Molecular target: Bem1-2, P29366
Sequence (P29366 139-227): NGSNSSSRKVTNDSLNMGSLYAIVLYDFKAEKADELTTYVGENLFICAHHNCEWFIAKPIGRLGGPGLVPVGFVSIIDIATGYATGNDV
Experiment: SPOT array
Details: median of control spots 4347
Measure: SPOT intensity
Could you respond with only the numeric value?

Note to self: SPOT intensity recorded for WTQRRGPLVVYAEDN was 3

Entry under test: PLQSKIPMLPSRRTM . Its SPOT intensity was 0

So, TKRKRPARLIFYDSK ? Its SPOT intensity was 6

The value of SPOT intensity measured for the binder VNFRRIPTGPDSPPT turned out to be 0

Quick note, SPOT intensity for GDHPKGPPPPPPPPD landed at 0

Per the record, DAPASKPSVPPRNYF has SPOT intensity of 0

The binder NAGIRPKFILALNDE showed SPOT intensity equal to 0

Field SPOT intensity (entry VYTRTAFQIPGDDKI ) reads 0

Record summary for SSTPTTPERPKRKSG : reported SPOT intensity = 0

For reference, reported SPOT intensity for RRTRLRPPTPLSQLL stands at 15

// field: SPOT intensity; key: YYNRQELALPKRMSS ; value = 0

Input NPTKSPPPPPSPSTM . Output SPOT intensity: 0

Short answer for DKSRPPRPPPKPLHL : SPOT intensity was 57

Per the record, APPPPPRRATPEKKP has SPOT intensity of 3

// SPOT intensity lookup, binder = RPVPRRPSQPLNTLS , result: 75
